These entries and their values trace back to patent US20250197387A1.

- system_tested: BCL-XL (Homo sapiens)
- Construct: endogenous in cells; host or cells: MOLT-4
- Sequence (Q07817 whole entry): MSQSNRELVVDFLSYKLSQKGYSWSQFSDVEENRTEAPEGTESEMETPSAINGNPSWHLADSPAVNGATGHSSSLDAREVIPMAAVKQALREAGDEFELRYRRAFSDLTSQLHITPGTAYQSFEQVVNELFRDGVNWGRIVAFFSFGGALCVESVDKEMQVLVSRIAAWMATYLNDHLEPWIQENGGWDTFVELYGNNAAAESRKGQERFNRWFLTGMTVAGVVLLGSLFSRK
- protocol_text: BCL-XL degradation assay, western blot in MOLT-4 cells, 16 h
- Assay type: cell-based
- condition_summary: western blot, MOLT-4 cells, 16 h; read-out: Bcl-xL WB in MOLT-4 degradation 16 h: Mean external-Abs DC50
recorded_metric: DC50

Lookup: Give DC50 (BCL-XL (Homo sapiens)) of the following compound: Cc1ncsc1-c1ccc([C@H](C)NC(=O)[C@@H]2C[C@@H](O)CN2C(=O)[C@@H](NC(=O)N2CC(c3ccc(S(=O)(=O)NC(=O)c4nc(N5CCc6cccc(C(=O)Nc7nc8ccccc8s7)c6C5)ccc4-c4cnn(CC5CCCCC5)c4C)cc3)C2)C(C)(C)C)cc1 [I-210]
Found: 100 to 500 nM

// next item, DC50 requested
Lookup: For the record Cc1ncsc1-c1ccc([C@H](C)NC(=O)[C@@H]2C[C@@H](O)CN2C(=O)[C@@H](NC(=O)CCC2CCC(S(=O)(=O)NC(=O)c3nc(N4CCc5cccc(C(=O)Nc6nc7ccccc7s6)c5C4)ccc3-c3cnn(CC4CCCCC4)c3C)CC2)C(C)(C)C)cc1 (some centres unmarked) [I-209] , what value of DC50 is listed for BCL-XL (Homo sapiens)?
Found: 10 to 100 nM

* * *

- system_tested: BCL-XL (Homo sapiens)
- Construct: endogenous in cells; host or cells: MOLT-4
- protocol_text: Bcl-xL ELISA degradation in MOLT-4 cells, 6 h
- Type: cell-based
recorded_metric: Dmax

Lookup: Which Dmax value belongs to C#Cc1ccc(CNC(=O)[C@@H]2C[C@@H](O)CN2C(=O)[C@H](NC(=O)CCCCCS(=O)(=O)NC(=O)c2nc(N3CCc4cccc(C(=O)Nc5nc6ccccc6s5)c4C3)ccc2-c2cnn(CC3CCCCC3)c2C)C(C)(C)CCO)cc1 ?
Found: > 75%

Lookup: Quick one: Dmax of Cc1ncsc1-c1ccc(CNC(=O)[C@@H]2C[C@@H](O)CN2C(=O)[C@@H](NC(=O)C2(F)CC2)C(C)(C)C)c(OCCCCCS(=O)(=O)NC(=O)c2nc(N3CCc4cccc(C(=O)Nc5nc6cccnc6s5)c4C3)ccc2-c2cnn(CC3CCCCC3)c2C)c1 ?
Found: 50 to 75%

Lookup: What Dmax value was documented for this compound, Cc1ncsc1-c1ccc(CNC(=O)[C@@H]2C[C@@H](O)CN2C(=O)[C@@H](NC(=O)CCCCCS(=O)(=O)NC(=O)c2nc(N3CCc4cccc(C(=O)Nc5nc6cccnc6s5)c4C3)ccc2-c2cnn(CC(C)(C)C)c2C)C(C)(C)C)cc1 ?
Found: > 75%

Lookup: Field request: Dmax | item: Cc1ncsc1-c1ccc([C@H](C)NC(=O)[C@@H]2C[C@@H](O)CN2C(=O)C(c2cc(OC3CC4(C3)CN(C(=O)c3nc(N5CCc6cccc(C(=O)Nc7nc8ccccc8s7)c6C5)ccc3-c3cnn(CC5CCCCC5)c3C)C4)no2)C(C)C)cc1 (stereo partly drawn)
Found: 50 to 75%

Lookup: # lookup: Dmax of C#Cc1ccc(CNC(=O)[C@@H]2C[C@@H](O)CN2C(=O)[C@@H](NC(=O)C2CCN(c3ccc(S(=O)(=O)NC(=O)c4nc(N5CCc6cccc(C(=O)Nc7nc8ccccc8s7)c6C5)ccc4-c4cnn(CC5CCCCC5)c4C)cc3)CC2)C(C)(C)C)c(OCCO)c1
Found: > 75%

New cases:
Lookup: Entry under review: C#Cc1ccc(C2(NC(=O)[C@@H]3C[C@@H](O)CN3C(=O)[C@@H](NC(=O)CCCCCS(=O)(=O)NC(=O)c3nc(N(C)c4cc(C)c(Nc5nc6ccccc6s5)nn4)ccc3-c3cnn(CC45CC6CC(CC(C6)C4)C5)c3C)C(C)(C)C)CC2)cc1 . Reported Dmax?
Found: > 75%

Lookup: Which Dmax value is on record for Cc1ncsc1-c1ccc([C@H](C)NC(=O)[C@@H]2C[C@@H](O)CN2C(=O)[C@@H](NC(=O)C2CCN(c3ccc(S(=O)(=O)NC(=O)c4nc(N5CCc6cccc(C(=O)Nc7nc8ccccc8s7)c6C5)ccc4-c4cnn(CC5CC5)c4C)cc3)CC2)C(C)(C)C)cc1 ?
Found: > 75%

Lookup: I am curious: what Dmax value has been reported for C#Cc1ccc(CNC(=O)[C@@H]2C[C@@H](O)CN2C(=O)[C@@H](NC(=O)CCCCCS(=O)(=O)NC(=O)c2nc(N3CCc4cccc(C(=O)Nc5nc6cccnc6s5)c4C3)ccc2-c2cnn(CC3CCCC3)c2C)C(C)(C)C)cc1 ?
Found: > 75%
